Hey, just so you know, these numbers are from ChEMBL document CHEMBL4417631.

Entries and their IC50
target: Interleukin-23 receptor (Homo sapiens); experiment: Inhibition of interleukin-23 binding to human interleukin-23 receptor incubated for 2 hrs by competitive binding ELISA
Sequence (Q5VWK5 whole entry): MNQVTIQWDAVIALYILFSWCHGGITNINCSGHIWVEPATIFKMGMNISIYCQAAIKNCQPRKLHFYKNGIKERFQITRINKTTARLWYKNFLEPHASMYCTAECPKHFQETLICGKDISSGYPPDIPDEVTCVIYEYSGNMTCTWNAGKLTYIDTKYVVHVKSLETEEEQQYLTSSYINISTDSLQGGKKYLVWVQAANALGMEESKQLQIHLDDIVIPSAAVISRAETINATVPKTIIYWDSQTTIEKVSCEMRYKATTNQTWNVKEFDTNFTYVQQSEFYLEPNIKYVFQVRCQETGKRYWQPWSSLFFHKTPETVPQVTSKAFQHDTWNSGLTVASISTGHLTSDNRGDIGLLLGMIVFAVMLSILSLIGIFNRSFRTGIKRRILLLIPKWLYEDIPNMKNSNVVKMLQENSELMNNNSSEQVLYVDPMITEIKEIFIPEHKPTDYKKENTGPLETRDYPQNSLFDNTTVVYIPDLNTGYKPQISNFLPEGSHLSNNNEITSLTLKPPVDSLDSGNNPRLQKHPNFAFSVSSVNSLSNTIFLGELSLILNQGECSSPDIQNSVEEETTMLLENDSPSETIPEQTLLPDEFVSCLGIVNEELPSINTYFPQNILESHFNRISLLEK
Where a SMILES comes first, the peptide text is derived from it.
Measure: IC50

# Molecule, Target or test system, Result
data = [
    ("CC(=O)N[C@H]1CCSC[C@@H](C(=O)N[C@@H](Cc2ccc(OCCN)cc2)C(=O)N[C@@H](Cc2ccc3ccccc3c2)C(=O)N[C@@](C)(CCCCN)C(=O)N[C@@H](CCCCNC(=O)c2ccccc2)C(=O)N[C@@H](CC(N)=O)C(=O)NCC(N)=O)NC(=O)[C@H](CCC(N)=O)NC(=O)[C@H](Cc2c[nH]c3ccccc23)NC(=O)[C@H]([C@@H](C)O)NC(=O)[C@H](CCC(N)=O)NC1=O", "Interleukin-23 receptor (Homo sapiens)", "< 0.01 µM"),
    ("CC(=O)NCCCC[C@H](NC(=O)[C@](C)(CCCN)NC(=O)[C@H](Cc1ccc2ccccc2c1)NC(=O)[C@H](Cc1ccc(OCCN)cc1)NC(=O)[C@@H]1CSCC[C@H](NC(C)=O)C(=O)N[C@@H](CCC(N)=O)C(=O)N[C@@H]([C@@H](C)O)C(=O)N[C@@H](Cc2c[nH]c3ccccc23)C(=O)N[C@@H](CCC(N)=O)C(=O)N1)C(=O)N[C@@H](CC(N)=O)C(=O)NCC(N)=O", "Interleukin-23 receptor (Homo sapiens)", "< 0.01 µM"),
    ("CC(C)[C@H](NC(=O)[C@H](Cc1cnc[nH]1)NC(=O)[C@H](Cc1c[nH]c2ccccc12)NC(=O)[C@H](Cc1ccc(O)cc1)NC(=O)[C@H](CS)NC(=O)[C@@H](NC(=O)[C@H](Cc1c[nH]c2ccccc12)NC(=O)[C@@H](NC(=O)[C@H](CCCNC(=N)N)NC(=O)[C@@H](N)CS)[C@@H](C)O)[C@@H](C)O)C(=O)N[C@@H](Cc1ccc(O)cc1)C(=O)NCC(N)=O (H-CRTWTCYWHVYG-NH2)", "Interleukin-23 receptor (Homo sapiens)", "0.5 to 1 µM"),
    ("CC(=O)NCCOc1ccc(C[C@H](NC(=O)[C@@H]2CSCC[C@H](NC(C)=O)C(=O)N[C@@H](CCC(N)=O)C(=O)N[C@@H]([C@@H](C)O)C(=O)N[C@@H](Cc3c[nH]c4ccccc34)C(=O)N[C@@H](CCC(N)=O)C(=O)N2)C(=O)N[C@@H](Cc2ccc3ccccc3c2)C(=O)N[C@@](C)(CCCCN)C(=O)N[C@@H](CCC(=O)O)C(=O)N[C@@H](CC(N)=O)C(=O)NCC(N)=O)cc1", "Interleukin-23 receptor (Homo sapiens)", "< 0.01 µM"),
    ("CC(=O)N[C@@H](CS)C(=O)N[C@@H](CCCNC(=N)N)C(=O)N[C@H](C(=O)N[C@@H](Cc1c[nH]c2ccccc12)C(=O)N[C@@H](CCC(=O)O)C(=O)N[C@@H](CS)C(=O)N[C@@H](Cc1ccc(O)cc1)C(=O)N[C@@H](Cc1c[nH]c2ccccc12)C(=O)N[C@@H](Cc1cnc[nH]1)C(=O)N[C@@H](CCC(=O)O)C(=O)N[C@@H](Cc1ccccc1)C(=O)NCC(N)=O)[C@@H](C)O (Ac-CRTWECYWHEFG-NH2)", "Interleukin-23 receptor (Homo sapiens)", "< 0.5 µM"),
]
